# experiment: Pharmacokinetics of free drugs in Sprague-Dawley rats
# Type: in vivo, rat
# statedConditions: rat, blood; female Sprague-Dawley rats, IV bolus, dose level 0.1 mg/kg
experimentalReadout: C0 (ng/mL)

- compound: "CN[C@H](C(=O)N[C@H](C(=O)N(C)[C@H](/C=C(\\C)C(=O)O)C(C)C)C(C)(C)C)C(C)(C)c1cccc(N)c1 [free drug (I)]"
  recordedMeasurement: 6.81
- compound: "COc1cc2cc(c1Cl)N(C)C(=O)C[C@H](OC(=O)[C@H](C)N(C)C(=O)CCC(C)(C)S)[C@]1(C)O[C@H]1[C@H](C)[C@@H]1C[C@@](O)(NC(=O)O1)[C@H](OC)/C=C/C=C(/C)C2 [free drug (II)]"
  recordedMeasurement: 10.7

---

# Tested on: MES-SA/MX2 cells (PgP over-expressing)
# experiment: Free drug cell killing on PgP over-expressing MES-SA/MX2 cells with or without PgP inhibitor GF120918
# Assay type: cell-based
# statedConditions: MEA-SA/MX2 cells, with PgP inhibitor GF120918 (5 μM)
pEC50: −log10 of the molar value. Square brackets hold non-standard residues; d marks the D form. Peptide text beside a SMILES is read from it. * marks the point of attachment. Dolaproine = CO[C@@H]([C@@H]1CCCN1)[C@@H](C)C(=O)O; Dil = CC[C@H](C)[C@H](NC)[C@@H](CC(=O)O)OC; X1 = C[C@@H](N*)[C@@H](O)c1ccccc1; NMeV = CN[C@H](C(=O)O)C(C)C
experimentalReadout: pEC50

- compound: "CC[C@H](C)[C@@H]([C@@H](CC(=O)N1CCC[C@H]1[C@H](OC)[C@@H](C)C(=O)N[C@H](C)[C@@H](O)c1ccccc1)OC)N(C)C(=O)[C@@H](NC(=O)[C@@H](NC)C(C)C)C(C)C [free drug (III), MMAE] (H-[NMeV]V[Dil][Dolaproine]-X1)"
  recordedMeasurement: 9.00

---

# experiment: Pharmacokinetics of free drugs in Sprague-Dawley rats
# Type: in vivo, rat
# statedConditions: rat, blood; female Sprague-Dawley rats, IV bolus, dose level 0.1 mg/kg

- molecule: "COc1cc2cc(c1Cl)N(C)C(=O)C[C@H](OC(=O)[C@H](C)N(C)C(=O)CCC(C)(C)S)[C@]1(C)O[C@H]1[C@H](C)[C@@H]1C[C@@](O)(NC(=O)O1)[C@H](OC)/C=C/C=C(/C)C2 [free drug (II)]"
  Cmax [ng/mL]: 9.31
- molecule: "CN[C@H](C(=O)N[C@H](C(=O)N(C)[C@H](/C=C(\\C)C(=O)O)C(C)C)C(C)(C)C)C(C)(C)c1cccc(N)c1 [free drug (I)]"
  Cmax [ng/mL]: 5.82

---

# experiment: Pharmacokinetics of free drugs in Sprague-Dawley rats
# Format: in vivo, rat
# statedConditions: rat, blood; female Sprague-Dawley rats, IV bolus, dose level 0.4 mg/kg; read-out: Terminal t1/2 (converted)
experimentalReadout: half-life (h)

- molecule: "COc1cc2cc(c1Cl)N(C)C(=O)C[C@H](OC(=O)[C@H](C)N(C)C(=O)CCC(C)(C)S)[C@]1(C)O[C@H]1[C@H](C)[C@@H]1C[C@@](O)(NC(=O)O1)[C@H](OC)/C=C/C=C(/C)C2 [free drug (II)]"
  experimentalReadout: "half-life"
  recordedMeasurement: 44.3

---

# Test system: Igrov1 cells
# experiment: In vitro cell killing (ADCs, free drugs), Igrov1 cells
# Format: cell-based
# statedConditions: Homo sapiens, IGROV-1
Listed below: EC50 values for each entry.

- compound: "COc1cc2cc(c1Cl)N(C)C(=O)C[C@H](OC(=O)[C@H](C)N(C)C(=O)CCC(C)(C)S)[C@]1(C)O[C@H]1[C@H](C)[C@@H]1C[C@@](O)(NC(=O)O1)[C@H](OC)/C=C/C=C(/C)C2 [free drug (II)]"
  testedSystem: "Igrov1 cells"
  EC50 / nM: 4.9
- compound: "CN[C@H](C(=O)N[C@H](C(=O)N(C)[C@H](/C=C(\\C)C(=O)O)C(C)C)C(C)(C)C)C(C)(C)c1cccc(N)c1 [free drug (I)]"
  testedSystem: "Igrov1 cells"
  EC50 / nM: 2.4

---

# experiment: Pharmacokinetics of free drugs in Sprague-Dawley rats
# Type: in vivo, rat
# statedConditions: rat, blood; female Sprague-Dawley rats, IV bolus, dose level 0.1 mg/kg; read-out: Terminal t1/2 (converted)

- compound: "COc1cc2cc(c1Cl)N(C)C(=O)C[C@H](OC(=O)[C@H](C)N(C)C(=O)CCC(C)(C)S)[C@]1(C)O[C@H]1[C@H](C)[C@@H]1C[C@@](O)(NC(=O)O1)[C@H](OC)/C=C/C=C(/C)C2 [free drug (II)]"
  half-life: "22.4 h"

---

# experiment: Pharmacokinetics of free drugs in Sprague-Dawley rats
# Assay type: in vivo, rat
# statedConditions: rat, blood; female Sprague-Dawley rats, IV bolus, dose level 0.1 mg/kg

- compound: "COc1cc2cc(c1Cl)N(C)C(=O)C[C@H](OC(=O)[C@H](C)N(C)C(=O)CCC(C)(C)S)[C@]1(C)O[C@H]1[C@H](C)[C@@H]1C[C@@](O)(NC(=O)O1)[C@H](OC)/C=C/C=C(/C)C2 [free drug (II)]"
  unitAnnotation: "ng·h/mL"
  AUC(0-inf): 129
